Test system: MMP-13
Assay: Western blot of MMP-13 in PMA- or IL-1β-pre-treated SW1353 cells (Example 6)
Type: cell-based, human
Settings: IL-1β-pre-treated SW1353 cell extract; 0.1 μM, 48 h
READOUT_KIND: MMP-13, Western blot, relative to Ctrl 1.00

>  <MOLECULE>
CC(=O)O[C@H]1[C@H](O[C@H]2CC[C@]34C[C@]35CC[C@]3(C)[C@@H]([C@@]6(C)CC[C@@H](C(C)(C)O)O6)[C@@H](O)C[C@@]3(C)[C@@H]5C[C@H](O[C@@H]3O[C@H](CO)[C@@H](O)[C@H](O)[C@H]3O)[C@H]4C2(C)C)OC[C@@H](O)[C@@H]1O [AS2, Astragaloside II]

>  <TARGET_DESC>
MMP-13

>  <REPORTED_MEASUREMENT>
0.49

$$$$
>  <MOLECULE>
C[C@@H]1C[C@H]2[C@@H]3CCC4=CC(=O)C=C[C@]4(C)[C@@]3(F)[C@@H](O)C[C@]2(C)[C@@]1(O)C(=O)CO [Dex, Dexamethasone, reference compound]

>  <TARGET_DESC>
MMP-13

>  <REPORTED_MEASUREMENT>
0.64

$$$$
>  <MOLECULE>
CC(C)(O)[C@@H]1CC[C@](C)([C@H]2[C@@H](O)C[C@@]3(C)[C@@H]4C[C@H](O[C@@H]5O[C@H](CO)[C@@H](O)[C@H](O)[C@H]5O)[C@H]5C(C)(C)[C@@H](O[C@@H]6OC[C@@H](O)[C@H](O)[C@H]6O)CC[C@@]56C[C@@]46CC[C@]23C)O1 [AS4, Astragaloside IV]

>  <TARGET_DESC>
MMP-13

>  <REPORTED_MEASUREMENT>
1.10

$$$$
>  <MOLECULE>
CC(C)(O)[C@@H]1CC[C@](C)([C@H]2[C@@H](O)C[C@@]3(C)[C@@H]4C[C@H](O)[C@H]5C(C)(C)[C@@H](O[C@@H]6OC[C@@H](O)[C@H](O)[C@H]6O[C@@H]6O[C@H](CO)[C@@H](O)[C@H](O)[C@H]6O)CC[C@@]56C[C@@]46CC[C@]23C)O1 [AS3, Astragaloside III]

>  <TARGET_DESC>
MMP-13

>  <REPORTED_MEASUREMENT>
0.86

$$$$
